The reader will find reported MIC values listed item by item below.
- Tested on: Mycolicibacterium fortuitum
- test.method.notes: Antimycobacterial activity against Mycobacterium fortuitum MNT1073 clinical isolate by MTT assay
- Type: functional

Study these solved cases before continuing.
COc1cc(-c2c3c(nc4c2c(C)nn4-c2ccccc2)-c2ccccc2C(=O)C3=O)cc(OC)c1OC | > 32 µg/mL
O=C1C(=O)c2ccccc2C2=C1C(c1ccccc1)c1c(-c3ccc([N+](=O)[O-])cc3)n[nH]c1N2 (stereo unspecified) | > 32 µg/mL
COc1ccc(-c2c3c(nc4[nH]nc(-c5ccc(Cl)cc5)c24)-c2ccccc2C(=O)C3=O)cc1 | > 32 µg/mL
O=C1C(=O)c2ccccc2C2=C1C(c1ccccc1)c1c(-c3ccccc3)n[nH]c1N2 (stereo unspecified) | > 32 µg/mL
Cc1nn(-c2ccccc2)c2nc3c(c(-c4ccc(Cl)cc4)c12)C(=O)C(=O)c1ccccc1-3 | > 32 µg/mL

Shifting focus to the compound that follows.
Please give the measured MIC for this compound: CO[C@H]1/C=C/O[C@@]2(C)Oc3c(C)c(O)c4c(O)c(c(/C=N/N5CCN(C)CC5)c(O)c4c3C2=O)NC(=O)/C(C)=C\C=C\[C@H](C)[C@H](O)[C@@H](C)[C@@H](O)[C@@H](C)[C@H](OC(C)=O)[C@@H]1C [RIFAMPIN]
> 0.5 µg/mL

Where these numbers come from: ChEMBL document CHEMBL3112512
